- Test system: STAT3 reporter activity in HeLa cells
- measurement_notes: STAT3 luciferase reporter gene assay
- Type: cell-based
- protocol_conditions: Homo sapiens, 2 h pretreatment, oncostatin M 10 ng/ml 4 h, read-out: STAT3 reporter assay (HeLa) IC50 ±SD
metric_name: IC50 (µM)

C=CCSSCCC(=O)NC1c2cc(C(C)C)c(O)c(O)c2C23CCCC(C)(C)C2C1OC3=O (centres unmarked) :: 37
COc1cc(/C=C/C(=O)OCCCCSS(C)(=O)=O)ccc1O :: 57.5
CS(=O)(=O)SCCOC(=O)C=Cc1ccccc1 [Compound 25, 2-(Methylsulfonylthio)ethyl cinnamate] :: 72.5

a = COc1cc(/C=C/C(=O)OCCSS(C)(=O)=O)ccc1O
b = O=C(/C=C/c1ccc(O)c(O)c1)Oc1ccc(-c2cc(=S)ss2)cc1
Input pair: a , b . Output: entry with lower IC50. Pick one; state its label.
b

###

metric_name: melting point

CS(=O)(=O)CCCCC(=O)O :: 111.3 to 112.8 °C
CC(C)c1cc2c(c(O)c1O)C13CCCC(C)(C)C1C(OC3=O)C2N (stereo not shown) :: 198.2 to 202.5 °C
CC(C)c1cc2c(c(O)c1O)C13CCCC(C)(C)C1C(OC3=O)C2NC(=O)CCCCSS(C)(=O)=O (stereo not shown) :: 121.1 to 124.2 °C (dec.)

--- query ---
What measured melting point goes with `COc1ccc(/C=C/C(=O)OCCSS(C)(=O)=O)cc1OC` ?
99.8 to 102.7 °C

###

Quick reference: melting point of the listed items.

CS(=O)(=O)SCCOC(=O)/C=C/c1ccc(O)c(O)c1 :: 133.1 to 134.8 °C
CC(C)c1cc2c(c(O)c1O)C13CCCC(C)(C)C1C(OC3=O)C2NC(=O)c1ccc(-c2cssc2=S)cc1 (stereo not shown) :: 243.2 to 249.7 °C
O=C(/C=C/c1ccc(O)c(O)c1)Oc1ccc(-c2cc(=S)ss2)cc1 :: 199.5 to 201.5 °C

What measured melting point goes with C=CCSSCCC(=O)NC1c2cc(C(C)C)c(O)c(O)c2C23CCCC(C)(C)C2C1OC3=O (stereo not shown) ?
206.9 to 209.2 °C

What measured melting point goes with CS(=O)(=O)SCCOC(=O)C=Cc1ccccc1 [Compound 25, 2-(Methylsulfonylthio)ethyl cinnamate] ?
76.8 to 78.5 °C

What measured melting point goes with `COCCOCOc1ccc(/C=C/C(=O)NCCSS(C)(=O)=O)cc1OCOCCOC` ?
62.3 to 64.6 °C

What measured melting point goes with `CS(=O)(=O)SCCOC(=O)/C=C/c1ccc(Cl)c(Cl)c1` ?
69.6 to 71.2 °C

###

- assayed_target: SH2-domain of STAT1 (Homo sapiens, UniProt P42224)
- Sequence (P42224 1-750): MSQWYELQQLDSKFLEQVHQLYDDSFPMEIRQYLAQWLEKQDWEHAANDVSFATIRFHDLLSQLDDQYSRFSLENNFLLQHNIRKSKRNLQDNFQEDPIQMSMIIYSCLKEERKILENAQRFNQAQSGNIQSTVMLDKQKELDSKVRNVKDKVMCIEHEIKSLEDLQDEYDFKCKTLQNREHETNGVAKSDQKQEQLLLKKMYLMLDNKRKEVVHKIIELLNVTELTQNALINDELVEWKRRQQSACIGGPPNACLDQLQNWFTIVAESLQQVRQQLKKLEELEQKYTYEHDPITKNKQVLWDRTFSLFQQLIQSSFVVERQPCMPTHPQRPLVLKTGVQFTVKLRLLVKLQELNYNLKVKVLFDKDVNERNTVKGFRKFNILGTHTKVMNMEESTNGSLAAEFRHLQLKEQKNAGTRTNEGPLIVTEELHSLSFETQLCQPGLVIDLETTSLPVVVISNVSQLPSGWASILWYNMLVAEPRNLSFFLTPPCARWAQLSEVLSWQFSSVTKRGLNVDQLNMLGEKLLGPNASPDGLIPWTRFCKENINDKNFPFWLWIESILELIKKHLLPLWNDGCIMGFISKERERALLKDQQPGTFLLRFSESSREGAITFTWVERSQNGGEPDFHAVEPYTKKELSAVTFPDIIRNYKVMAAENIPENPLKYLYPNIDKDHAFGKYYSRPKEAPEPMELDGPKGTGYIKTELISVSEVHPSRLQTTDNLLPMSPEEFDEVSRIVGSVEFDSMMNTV
- measurement_notes: STAT AlphaScreen-based assay (STAT1 selectivity)
- Assay type: binding
- protocol_conditions: read-out: STAT1 % inhibition ± SD at 30 μM, 30 μM
metric_name: inhibition at 30 µM (%)

Known results for compounds:
CS(=O)(=O)SCCOC(=O)/C=C/c1ccc(Cl)c(Cl)c1 :: 104
C=CCSSCCO :: 11.7
O=C(/C=C/c1ccc(O)c(O)c1)Oc1ccc(-c2cc(=S)ss2)cc1 :: 21.5

1 = C=CCSSCCOC(=O)/C=C/c1ccc(O)c(O)c1
2 = C=CCSSCCC(=O)OC [Compound 10, Methyl 3-(allyldisulfanyl)propanoate]
Input pair: 1 , 2 . Output: entry with lower inhibition at 30 µM. Pick one; state its label.
2
(2: 11.2%, 1: 37.7%)

###

- assayed_target: STAT3-SH2 domain (Homo sapiens, UniProt P40763)
- Sequence (P40763 whole entry, the tested form may be a part): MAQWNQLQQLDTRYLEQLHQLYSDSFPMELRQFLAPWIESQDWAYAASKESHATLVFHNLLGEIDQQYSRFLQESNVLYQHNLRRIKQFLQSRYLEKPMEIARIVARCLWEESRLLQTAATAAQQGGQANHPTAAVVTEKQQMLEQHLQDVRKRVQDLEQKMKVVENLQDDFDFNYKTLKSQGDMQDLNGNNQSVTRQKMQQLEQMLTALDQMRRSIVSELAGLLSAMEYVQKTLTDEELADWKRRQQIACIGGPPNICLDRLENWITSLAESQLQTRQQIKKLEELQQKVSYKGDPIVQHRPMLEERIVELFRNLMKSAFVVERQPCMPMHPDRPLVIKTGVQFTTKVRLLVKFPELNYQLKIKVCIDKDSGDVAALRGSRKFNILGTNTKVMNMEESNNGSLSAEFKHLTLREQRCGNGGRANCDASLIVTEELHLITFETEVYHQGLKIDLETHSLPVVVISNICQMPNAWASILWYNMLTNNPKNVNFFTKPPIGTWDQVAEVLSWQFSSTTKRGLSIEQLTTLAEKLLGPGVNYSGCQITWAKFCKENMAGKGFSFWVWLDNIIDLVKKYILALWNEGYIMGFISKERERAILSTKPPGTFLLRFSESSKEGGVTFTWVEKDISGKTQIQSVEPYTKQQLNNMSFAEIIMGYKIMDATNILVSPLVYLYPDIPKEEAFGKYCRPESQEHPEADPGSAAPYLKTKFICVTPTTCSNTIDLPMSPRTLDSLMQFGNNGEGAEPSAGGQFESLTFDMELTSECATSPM
- measurement_notes: STAT AlphaScreen-based assay (STAT3)
- Type: binding
- protocol_conditions: read-out: STAT3 % inhibition ± SD at 30 μM; AlphaScreen assay, 30 μM
metric_name: inhibition at 30 µM (%)

Known results for molecules:
COc1cc(/C=C/C(=O)NCCSS(C)(=O)=O)ccc1O :: 108
C=CCSSCCC(=O)O :: 43.9
Oc1ccc(-c2cc(=S)ss2)cc1 [Compound 5, 5-(4-hydroxyphenyl)-1,2-dithiol-3-thione] :: 43.7
CC(C)c1cc2c(c(O)c1O)C13CCCC(C)(C)C1C(OC3=O)C2NC(=O)c1ccc(-c2cssc2=S)cc1 (centres unmarked) :: 94.5
COc1cc(/C=C/C(=O)OCCSS(C)(=O)=O)ccc1O :: 110

1 = C=CCSSCCC(=O)OC [Compound 10, Methyl 3-(allyldisulfanyl)propanoate]
2 = CS(=O)(=O)SCCCCO [Compound 2, S-4-hydroxybutyl methanesulfonothioate]
3 = CS(=O)(=O)SCCN
4 = CS(=O)(=O)CCCCC(=O)O
Let's sort these by inhibition at 30 µM, smallest first. Go ahead? Form entry: ranked labels (order as requested).
3, 4, 1, 2
(3: -10.2%, 4: 3.8%, 1: 42%, 2: 88.4%)

I = C=CCSSCCOC(=O)/C=C/c1ccc(O)c(O)c1
II = COCCOCOc1ccc(/C=C/C(=O)NCCSS(C)(=O)=O)cc1OCOCCOC
When I and II are compared, which has the higher number for inhibition at 30 µM? Pick one; state its label.
II

###

- assayed_target: STAT3-SH2 domain (Homo sapiens, UniProt P40763)
- measurement_notes: STAT AlphaScreen-based assay (STAT3)
- Format: binding
- protocol_conditions: AlphaScreen assay; read-out: STAT3 IC50 ±SD
pIC50: −log10 of the molar value.
metric_name: pIC50

Known results for molecules:
O=C(/C=C/c1ccc(O)c(O)c1)Oc1ccc(-c2cc(=S)ss2)cc1 :: 4.88
CC(C)c1cc2c(c(O)c1O)C13CCCC(C)(C)C1C(OC3=O)C2N (stereo not drawn) :: 5.72
CS(=O)(=O)SCCOC(=O)/C=C/c1ccc(O)c(O)c1 :: 6.10

I = COC(=O)CCCCSS(C)(=O)=O
II = COc1cc(/C=C/C(=O)OCCCCSS(C)(=O)=O)ccc1O
III = CS(=O)(=O)SCCNC(=O)/C=C/c1ccc(O)c(O)c1
IV = COc1cc(/C=C/C(=O)Oc2ccc(-c3cc(=S)ss3)cc2)ccc1O
Order the records by pIC50, with each subsequent value no larger than the one before. Form entry: ranked labels (order as requested).
II, III, I, IV

a = COCCOCOc1ccc(/C=C/C(=O)OCCSS(C)(=O)=O)cc1OCOCCOC
b = COc1cc(/C=C/C(=O)NCCSS(C)(=O)=O)ccc1O
c = CC(C)c1cc2c(c(O)c1O)C13CCCC(C)(C)C1C(OC3=O)C2NC(=O)c1ccc(-c2cssc2=S)cc1 (stereo not drawn)
Order the records by pIC50, with each subsequent value no larger than the one before. Form entry: ranked labels (order as requested).
a, b, c

P = CS(=O)(=O)SCCOC(=O)C=Cc1ccccc1 [Compound 25, 2-(Methylsulfonylthio)ethyl cinnamate]
Q = CS(=O)(=O)SCCCCO [Compound 2, S-4-hydroxybutyl methanesulfonothioate]
R = C=CCSSCCO
Order the records by pIC50, with each subsequent value no larger than the one before. Form entry: ranked labels (order as requested).
P, Q, R
(P: 6.30, Q: 5.36, R: 4.65)

###

- assayed_target: SH2-domain of STAT1 (Homo sapiens)
- Sequence (P42224 1-750): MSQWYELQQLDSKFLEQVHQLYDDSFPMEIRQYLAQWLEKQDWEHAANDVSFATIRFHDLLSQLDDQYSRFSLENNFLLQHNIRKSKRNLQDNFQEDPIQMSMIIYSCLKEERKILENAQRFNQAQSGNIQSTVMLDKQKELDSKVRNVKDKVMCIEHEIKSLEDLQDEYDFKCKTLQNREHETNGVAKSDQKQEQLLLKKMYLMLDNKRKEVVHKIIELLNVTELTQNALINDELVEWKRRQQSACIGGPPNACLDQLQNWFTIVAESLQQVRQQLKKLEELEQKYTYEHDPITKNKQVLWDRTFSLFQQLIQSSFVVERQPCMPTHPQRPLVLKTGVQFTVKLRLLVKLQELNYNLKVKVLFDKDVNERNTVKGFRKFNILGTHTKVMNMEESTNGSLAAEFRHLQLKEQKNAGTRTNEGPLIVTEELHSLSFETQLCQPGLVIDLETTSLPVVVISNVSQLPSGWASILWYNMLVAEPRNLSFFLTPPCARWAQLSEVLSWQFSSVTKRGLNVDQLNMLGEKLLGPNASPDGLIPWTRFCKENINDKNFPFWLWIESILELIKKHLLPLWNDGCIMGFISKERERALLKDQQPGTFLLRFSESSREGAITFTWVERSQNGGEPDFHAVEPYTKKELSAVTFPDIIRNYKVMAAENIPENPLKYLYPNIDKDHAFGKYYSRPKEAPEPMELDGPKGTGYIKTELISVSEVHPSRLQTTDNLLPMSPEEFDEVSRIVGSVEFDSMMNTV
- measurement_notes: STAT AlphaScreen-based assay (STAT1 selectivity)
- Assay type: binding
- protocol_conditions: read-out: STAT1 % inhibition ± SD at 30 μM, 30 μM
metric_name: inhibition at 30 µM (%)

CC(C)c1cc2c(c(O)c1O)C13CCCC(C)(C)C1C(OC3=O)C2NC(=O)c1ccc(-c2cssc2=S)cc1 (stereo not shown) [Compound 33] :: 58.8
C=CCSSCCC(=O)NC1c2cc(C(C)C)c(O)c(O)c2C23CCCC(C)(C)C2C1OC3=O (stereo not shown) [Compound 32] :: 23.9

a = CS(=O)(=O)SCCCCO [Compound 2, S-4-hydroxybutyl methanesulfonothioate]
b = C=CCSSCCOC(=O)/C=C/c1ccc(O)c(OC)c1 [Compound 17]
Input pair: a , b . Output: entry with lower inhibition at 30 µM. Pick one; state its label.
b
(b: 12%, a: 73.7%)
